B1: Pistol ribozyme (parent)
chain: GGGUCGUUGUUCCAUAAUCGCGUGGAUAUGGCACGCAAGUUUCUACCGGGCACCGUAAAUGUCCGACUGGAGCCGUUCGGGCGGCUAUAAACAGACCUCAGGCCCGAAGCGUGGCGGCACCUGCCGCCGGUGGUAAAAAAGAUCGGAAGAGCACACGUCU

# Variants of: B1
# Assay procedure: aptazyme ON/OFF ratio, guanine; higher = stronger switching; co-transcriptional cleavage with and without guanine
Quantity kind: aptazyme ON/OFF ratio
Form field (numeric): enter value without unit.

Query block: What measured aptazyme ON/OFF ratio goes with U7C U8A G9A U10A C12U C13A ?
Result block: 1.15

Query block: Value lookup for aptazyme ON/OFF ratio; key = U7C U8G G9U U10C U11C C12A C13A
Result block: 1.06

Query block: Could you tell me which aptazyme ON/OFF ratio is on file for G9U U10A U11G C12A ?
Result block: 1.79

Query block: Which value of aptazyme ON/OFF ratio has been reported for U7A U8A U11G C12A in the records?
Result block: 1.13

Query block: Fill blank: measured aptazyme ON/OFF ratio of the variant U7G U8A G9A U10G C12G C13G is ____.
Result block: 1.09

Query block: What does the record list as aptazyme ON/OFF ratio for U7A U8C G9C U10G U11A C12A C13G ?
Result block: 1.16

Query block: Which aptazyme ON/OFF ratio is listed for U7C U8A G9U C12U C13U ?
Result block: 1.29

Query block: Any idea what aptazyme ON/OFF ratio was measured for U7C U8G U10C U11C C12G C13U ?
Result block: 1.24

Query block: Quick one: aptazyme ON/OFF ratio for U7C U8G G9U U11C C12U ?
Result block: 1.21

Query block: aptazyme ON/OFF ratio lookup needed for U8A U10G U11G C12G , thanks.
Result block: 1.23

Query block: May I ask what aptazyme ON/OFF ratio has been recorded for U7C G9C U10G U11A C12U C13A ?
Result block: 1.19

Query block: Give the measured aptazyme ON/OFF ratio of U7C U8A G9U U10A U11A C12A .
Result block: 1.1

Query block: So what does the record say about aptazyme ON/OFF ratio for U7A U8G G9A U10A ?
Result block: 1.4

Query block: Please look up its aptazyme ON/OFF ratio: U7G U8C G9U C12G C13G
Result block: 1.32

Query block: So what's the measured aptazyme ON/OFF ratio for this one? U7C U8C G9A U10C U11C C12A C13G
Result block: 1.17

Query block: Consider the variant shown here: U7C G9A U10C U11C C12U C13A What is its recorded aptazyme ON/OFF ratio?
Result block: 1.04

Query block: Consider the variant U7A C12U C13A and give its measured aptazyme ON/OFF ratio.
Result block: 1.29

Query block: I'd like to know its aptazyme ON/OFF ratio. The variant in question is U7C U8C G9C U10A U11C C12G C13A
Result block: 1.21

Query block: Consider the variant U8A G9C U10G C12A C13G and give its measured aptazyme ON/OFF ratio.
Result block: 1.03

Query block: Data request, read-out aptazyme ON/OFF ratio, for U8C G9C U10A U11G C12U C13A
Result block: 1.19

Query block: Fill in: aptazyme ON/OFF ratio of U8G U10A U11A is ___
Result block: 1.71

Query block: Would you mind telling me what aptazyme ON/OFF ratio value was observed for U8C G9C U10C U11A C12U C13A ?
Result block: 1.02

Query block: Recorded aptazyme ON/OFF ratio for U7C U8G U10C U11G C12G C13A , please?
Result block: 1.09

Query block: May I ask what aptazyme ON/OFF ratio has been recorded for U7A U8G G9U U10A U11G C12A C13G ?
Result block: 1.12

Query block: # lookup: aptazyme ON/OFF ratio of U7G U8G U10C U11A C12A
Result block: 1.34

Query block: Need aptazyme ON/OFF ratio of U8G G9C U10G U11G C12A C13G , thanks.
Result block: 1.15

Query block: Request the reported aptazyme ON/OFF ratio associated with U7C U8A G9U U10A
Result block: 1.16

Query block: May I ask what aptazyme ON/OFF ratio has been recorded for U7G U8A U10A C12U ?
Result block: 1.18

Query block: I would be grateful if you could share the reported aptazyme ON/OFF ratio for G9U C13A .
Result block: 1.34

Query block: Look up aptazyme ON/OFF ratio for this variant: U7G U8A G9U U10G U11C C12U C13A
Result block: 1.07
